Each recorded value in this set is attributed to patent US10028961B2.

Measured pIC50, listed per entry for reference.
target_of_assay: IDH1-R132H homodimer enzyme (Homo sapiens (Human), UniProt O75874, R132H)
assay_name: In vitro assay IDH1-R132H homodimer, NADPH depletion assay with NADPH/NADP preincubation
reported_conditions: 5 μM NADPH and 37.5 μM NADP
pIC50: −log10 of the molar value.

Below are worked cases with known answers.
compound: N#CC1(c2cc(Nc3nc(NC4CCC(F)(F)C4)nc(-c4cccc(C(F)(F)F)n4)n3)ccn2)CC1 (stereo not drawn)
pIC50: > 7.30
--
compound: N#CC1(c2cc(Nc3nc(NCC(F)(F)F)nc(-c4cccc(C(F)(F)F)n4)n3)ccn2)CC1
pIC50: 6.00 to 7.00
--
compound: N#Cc1cc(Nc2nc(NC3CC(F)(F)C3)nc(-n3ccc(C(F)(F)F)n3)n2)ccn1
pIC50: 7.00 to 7.30

I am curious: what pIC50 value has been reported for FC1(F)CCC(Nc2nc(NC3CCOCC3)nc(-c3cccc(C(F)(F)F)n3)n2)CC1 ?
6.00 to 7.00

Name the reported pIC50 value associated with the compound N#CC1(c2cc(Nc3nc(NC4CCC(F)(F)CC4)nc(-c4cccc(C(F)(F)F)n4)n3)ccn2)CC1
6.00 to 7.00

Look up pIC50: Fc1ccc([C@H]2C[C@@H](Nc3nc(NC4CCC(F)(F)C4)nc(-c4cccc(C(F)(F)F)n4)n3)C2)cc1 (stereo partly drawn)
6.00 to 7.00

Which pIC50 reading was recorded for the compound COCCc1ccnc(-c2nc(NC3CCC(F)(F)CC3)nc(NC3CCC(F)(F)CC3)n2)n1 ?
< 6.00

Fill in: pIC50 of FC1(F)CC(CNc2nc(NCC3CC(F)(F)C3)nc(-c3cccc(C(F)(F)F)n3)n2)C1 is ___
6.00 to 7.00

====

Each record here notes measured pIC50.
target_of_assay: IDH2 R140Q (Homo sapiens (Human), UniProt P48735, R140Q)
Sequence (P48735 40-452 R140Q): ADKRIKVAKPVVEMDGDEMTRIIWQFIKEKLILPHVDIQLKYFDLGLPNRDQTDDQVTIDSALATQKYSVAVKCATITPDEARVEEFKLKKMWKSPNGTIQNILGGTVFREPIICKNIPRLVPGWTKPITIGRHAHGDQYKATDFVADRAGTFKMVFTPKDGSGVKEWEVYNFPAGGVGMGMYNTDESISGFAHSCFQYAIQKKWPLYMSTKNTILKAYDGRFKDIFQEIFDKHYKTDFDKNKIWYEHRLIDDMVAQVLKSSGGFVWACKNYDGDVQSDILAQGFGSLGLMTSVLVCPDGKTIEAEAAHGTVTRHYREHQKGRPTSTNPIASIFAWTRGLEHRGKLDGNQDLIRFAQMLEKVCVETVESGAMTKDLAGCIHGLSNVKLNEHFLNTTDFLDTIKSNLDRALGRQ
assay_name: In vitro assay for IDH2m R140Q inhibitors, cofactor depletion assay
Assay type: biochemical
reported_conditions: IDH2 R140Q enzyme
pIC50: −log10 of the molar value.

pIC50 of FC1(F)CCC(Nc2nc(Nc3cncc(C(F)(F)F)c3)nc(-c3cccc(C(F)(F)F)n3)n2)C1 (stereo not shown) [Compound 405] on IDH2 R140Q (Homo sapiens (Human), UniProt P48735, R140Q)?
> 7.30

====

target_of_assay: IDH1 wt/IDH1 R132H heterodimer (Homo sapiens (Human), UniProt O75874, R132H)
Sequence (O75874 whole entry R132H): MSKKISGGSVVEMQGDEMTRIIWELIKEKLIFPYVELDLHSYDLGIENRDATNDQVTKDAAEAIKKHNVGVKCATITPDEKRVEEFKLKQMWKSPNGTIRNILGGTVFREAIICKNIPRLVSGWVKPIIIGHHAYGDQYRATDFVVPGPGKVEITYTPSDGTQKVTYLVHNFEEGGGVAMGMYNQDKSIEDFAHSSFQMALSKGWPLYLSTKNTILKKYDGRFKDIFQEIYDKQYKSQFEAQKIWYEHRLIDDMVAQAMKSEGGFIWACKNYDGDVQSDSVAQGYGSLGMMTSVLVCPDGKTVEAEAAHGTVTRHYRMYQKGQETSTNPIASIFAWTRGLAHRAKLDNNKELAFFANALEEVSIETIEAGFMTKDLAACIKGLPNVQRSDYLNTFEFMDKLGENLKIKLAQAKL
Sequence (O75874 whole entry, stated change not applied): as the sequence (O75874 whole entry R132H) above, with H132R counted along it
assay_name: In vitro assay for IDH1m R132H inhibitors, IDH1 wt/IDH1 R132H heterodimer, NADPH depletion (diaphorase/resazurin)
Type: biochemical
reported_conditions: IDH1 wt/R132H heterodimer, NADPH/NADP, not saturated; read-out: IDH1 wt/R132H NADPH/NADP IC50 not saturated
measurement_kind: IC50

Take a look at these entries with their results.
compound: C[C@@H](Nc1nc(NC2Cc3ccccc3C2)nc(-c2cccc(C(F)(F)F)n2)n1)C1CC1
IC50: < 50 nM
//
compound: N#Cc1cc(F)cc(Nc2nc(NC3CCC(F)(F)C3)nc(-c3cccc(C(F)(F)F)n3)n2)c1 (centres unmarked)
IC50: < 50 nM
//
compound: CC(C)(O)CNc1nc(Nc2cc(F)cc(F)c2)nc(-n2ccc(C(F)(F)F)n2)n1
IC50: < 50 nM
//
compound: COCCc1ccnc(-c2nc(NC3CCC(F)(F)CC3)nc(NC3CCC(F)(F)CC3)n2)n1
IC50: > 1000 nM
//
compound: CC(C)(C)Nc1nc(Nc2cc(F)cc(C#N)c2)nc(-c2nccc(C(F)(F)F)n2)n1
IC50: 50 to 100 nM
//
compound: FC1(F)CCC(Nc2nc(NC3CCC(F)(F)C3)nc(-c3nccc(C(F)(F)F)n3)n2)C1 (centres unmarked)
IC50: < 50 nM
//
compound: C[C@@H](Nc1nc(NC2CCc3ccccc32)nc(-c2cccc(C(F)(F)F)n2)n1)C1CC1 (some centres unmarked)
IC50: < 50 nM
//
compound: N#Cc1cc(Nc2nc(NC3CC(F)(F)C3)nc(-c3cccc(C(F)(F)F)n3)n2)ccn1
IC50: < 50 nM

Now look at this one.
Returns the measured IC50 for the input compound. Input: COC(=O)N1CCC(Nc2nc(NC3CCC(F)(F)C3)nc(-c3cccc(C(F)(F)F)n3)n2)C1 (centres unmarked)
< 50 nM
